tested on: M. tuberculosis H37Rv growth inhibition; test: M. tuberculosis H37Rv growth inhibitors, H37Rv strain (AID 1626); details: measured here: Vero cell cytotoxicity
test readout: CC50 (µM)
Numbers only, in µM.

mol smiles	CC50, µM
Cc1cc(NC(=O)C2CCCCC2)n(-c2nc3ccccc3[nH]2)n1	38

# return CC50 for each item in the list
1. CCOc1ccc(CN(C)C(=O)CCl)cc1
2. COc1ccccc1/C=C/C(=O)Oc1cccc2cccnc12

12.7
37.9

###

Would you kindly list CC50 for each of these compounds?
tested on: M. tuberculosis H37Rv growth inhibition; experiment: M. tuberculosis H37Rv growth inhibitors, H37Rv strain (AID 1626); conditions: measured here: Vero cell cytotoxicity

Some entries whose results are on file:
compound	CC50
CCc1cccc2c(C(=O)COC(=O)c3ccc([N+](=O)[O-])s3)c[nH]c12	> 40 µM
O=[N+]([O-])c1cc(S(=O)(=O)C(F)(F)F)ccc1Sc1nc2ccccc2s1	12.6 µM
Cc1[nH]n2c(=O)c3c(nc2c1-c1ccc(Cl)cc1)CCC3	19.6 µM

# return CC50 for each item in the list
1. COc1cc(OC)c2c(-c3ccccc3)cc(=O)oc2c1C(CCN1CCCCC1)c1ccc2c(c1)OCO2 (stereo unspecified)
2. CCOc1ccc(-c2cc(CCCC(=O)Nc3cccc(OC)c3)no2)cc1
3. O=C(Oc1ccc2cc(Br)ccc2c1)c1cccnc1
4. O=C(Nc1ccc2c(c1)OCCO2)c1cccc2nc3ccccc3nc12
5. CCCOc1cccc(-c2nn(-c3ccccc3)cc2/C=C(\C#N)C(=O)NCCCn2ccnc2)c1
6. COc1cc(OC)c2c(-c3ccccc3)cc(=O)oc2c1C(CCN1CCCCC1)c1ccc(N(C)C)cc1 (stereo unspecified)
7. Cc1ccc(-c2csc3nc[nH]c(=S)c23)cc1C
8. COc1ccc(-c2nnc(SC(C(=O)c3c[nH]c4ccccc34)c3ccccc3)n2N)cc1OC (stereo unspecified)

13.6 µM
> 40 µM
> 40 µM
> 40 µM
> 40 µM
20.4 µM
26.1 µM
> 40 µM

###

test system: M. tuberculosis H37Rv growth inhibition; assay: M. tuberculosis H37Rv growth inhibitors, H37Rv strain (AID 1626); details: measured here: IC90 against H37Rv
test readout: log10 IC90 (log10 of the value in µM)
Friendly reminder: values = log10 of IC90, unit µM.

# return log10 IC90 for each item in the list
1. COc1cc(/C=C/C(=O)c2c(O)n(CCc3ccccc3)c(=O)[nH]c2=O)ccc1O
2. COc1ccc(N2C(=O)NC(=O)/C(=C/c3cccc(OC(=O)c4cccs4)c3)C2=O)cc1Cl
3. Cc1nc(-c2ccccn2)nc(SCC(=O)c2ccccc2)c1Cl
4. N#Cc1c(N2CCN(C(=O)c3ccco3)CC2)nc(-c2ccccc2)c2c1CCCC2
5. O=C(c1cc2nc(-c3ccc(F)cc3)cc(C(F)(F)F)n2n1)N1CCCCC1c1cccnc1 (configuration not stated)
6. C/C(=N\N=C(/N)SC1CC(=O)N(c2ccc(Br)cc2)C1=O)c1cccs1 (configuration not stated)
7. O=c1[nH][nH]c(-c2ccccc2O)c1C(C[N+](=O)[O-])c1cccc(Cl)c1 (configuration not stated)
8. Cc1ccc(-c2nc(C(Cl)Cl)c3ccccc3n2)cc1

1. 1.05
2. 1.24
3. 0.81
4. 1.09
5. 1.15
6. 1.23
7. 1.14
8. 1.08
